details: 318.15 K; 101 kPa; Liquid
Numbers after ± are expanded uncertainties.
Please go through the items and note down their viscosity.
Include the unit after the number when you answer.

(Q) State its viscosity for this molecule: O=C(O)C1CC1
(A) 2.102 ± 0.025 mPa·s

(Q) Assign viscosity to the following record: CCCCO
(A) 1.555 ± 0.019 mPa·s

(Q) Supply measured viscosity of CCO in your reply.
(A) 0.756 ± 0.011 mPa·s

(Q) Hello, please tell me recorded viscosity for this one: CO
(A) 0.424 ± 0.008 mPa·s

(Q) Return reported viscosity. Input molecule: CCCO
(A) 1.224 ± 0.015 mPa·s

###

conditions: 328.15 K; 101 kPa; Liquid
Consider the following molecules; for each one, report its mass density.
Output spec: scalar in kg/m3, unitless text.

(Q) Return mass density (reported value) for this molecule: CO
(A) 758.28

(Q) Fill in reported mass density for this entry: CCCO
(A) 774.73

(Q) Could you please provide reported mass density for O=C(O)C1CC1 ? Thanks!
(A) 1053.12

(Q) Supply mass density value. Item: CCCCO
(A) 782.17

(Q) Given the molecule CCO , write its reported mass density.
(A) 758.92

###

conditions: 308.15 K; 101 kPa; Liquid
Rule: viscosity below 2 mPa·s gives satisfied, anything at or above gives not satisfied.

(Q) hey, is viscosity for O=C(O)C1CC1 [cyclopropanecarboxylic acid] lower than 2 mPa·s or not?
(A) not satisfied

(Q) Check if viscosity falls below 2 mPa·s for CO [methanol] .
(A) satisfied

(Q) Hello, is viscosity of the following compound strictly smaller than 2 mPa·s? CCO [ethanol]
(A) satisfied

(Q) Lab note: viscosity threshold 2 mPa·s. Does this compound come in strictly under it? CCCO [propan-1-ol]
(A) satisfied

###

settings: 328.15 K; 101 kPa; Liquid
READOUT: viscosity (mPa·s)
State just the number; it will be interpreted in mPa·s.

(Q) Supply viscosity value. Item: CCCCO
(A) 1.228

(Q) Dear colleague, please send me the reported viscosity for CCO when you can.
(A) 0.634

(Q) Read off the recorded viscosity for CO
(A) 0.372

(Q) Given the molecule O=C(O)C1CC1 , write its reported viscosity.
(A) 1.739

(Q) Recall and state the measured viscosity for CCCO .
(A) 0.986

###

details: 298.15 K; 101 kPa; Liquid
Numbers after ± are expanded uncertainties.
READOUT: mass density

(Q) Give mass density for the following molecule: CCO
(A) 785.44 ± 0.49 kg/m3

(Q) // fetch mass density given entry CCCCO
(A) 805.8 ± 0.46 kg/m3

(Q) Provide mass density value for the following molecule: O=C(O)C1CC1
(A) 1082.92 ± 0.31 kg/m3

(Q) Tell me its mass density given CCCO as the entry.
(A) 799.6 ± 0.47 kg/m3

(Q) Give the measured mass density for CO
(A) 787.01 ± 0.49 kg/m3

###

settings: 298.15 K; 101 kPa; Liquid
READOUT: viscosity (mPa·s)
# unit: mPa·s | format: bare number

(Q) Identify viscosity associated with the compound O=C(O)C1CC1 [cyclopropanecarboxylic acid]
(A) 3.306

(Q) Check the records and state viscosity for CCCCO [butan-1-ol]
(A) 2.588

(Q) Complete the entry with viscosity for CCO [ethanol]
(A) 1.097

(Q) Tell us which viscosity value is on record for CCCO [propan-1-ol]
(A) 1.955

(Q) Output viscosity of CO [methanol]
(A) 0.556

###

details: 308.15 K; 101 kPa; Liquid
± gives the expanded uncertainty stated by the source.
READOUT: mass density
A complete answer gives the number followed by the unit.

(Q) Specify reported mass density for the molecule shown: CCCCO
(A) 798.08 ± 0.47 kg/m3

(Q) Recall and state the measured mass density for CCO .
(A) 776.78 ± 0.5 kg/m3

(Q) Consider the molecule CCCO and give its recorded mass density.
(A) 791.49 ± 0.48 kg/m3

(Q) Given CO , respond with its mass density.
(A) 777.54 ± 0.5 kg/m3

(Q) Return value of mass density for input O=C(O)C1CC1 , no commentary.
(A) 1072.97 ± 0.3 kg/m3

###

settings: 318.15 K; 101 kPa; Liquid
READOUT: mass density (kg/m3)
API: value field is a number in kg/m3; no unit string.

(Q) For the molecule CCCCO [butan-1-ol] , give its reported mass density.
(A) 790.22

(Q) For O=C(O)C1CC1 [cyclopropanecarboxylic acid] , write its mass density.
(A) 1063.04

(Q) Look up and state reported mass density for CO [methanol]
(A) 767.98

(Q) Please report the measured mass density for CCCO [propan-1-ol]
(A) 783.22

(Q) Output mass density of CCO [ethanol]
(A) 767.94

These data points were gathered from the NIST ThermoML archive (doi:10.1021/je800930v).
